measurement_target: H3 receptor (Rattus norvegicus, UniProt Q9QYN8)
Construct: liberation and synthesis of endogenous histamine from depolarized brain sections
Sequence (Q9QYN8 whole entry): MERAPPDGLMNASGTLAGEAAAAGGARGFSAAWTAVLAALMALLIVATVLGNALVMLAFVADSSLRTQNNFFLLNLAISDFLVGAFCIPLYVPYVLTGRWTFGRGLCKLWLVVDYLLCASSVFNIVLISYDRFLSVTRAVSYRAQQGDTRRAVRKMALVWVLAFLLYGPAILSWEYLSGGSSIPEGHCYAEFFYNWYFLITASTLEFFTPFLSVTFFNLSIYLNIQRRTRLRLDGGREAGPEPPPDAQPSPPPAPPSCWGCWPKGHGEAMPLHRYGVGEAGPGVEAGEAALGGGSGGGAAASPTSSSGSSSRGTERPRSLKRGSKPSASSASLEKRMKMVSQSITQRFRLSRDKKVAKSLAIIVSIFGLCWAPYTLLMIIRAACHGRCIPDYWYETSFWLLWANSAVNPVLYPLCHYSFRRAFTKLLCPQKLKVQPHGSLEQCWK
assay_text: inhibition of liberation and synthesis of endogenous histamine from depolarized brain sections (H3 agonism)
reported_conditions: read-out: EC50 as H3 agonist
endpoint_name: pEC50
Remember, pEC50 is on a log scale: it is -log10 of the molar concentration.

Return reported pEC50; argument: CN=C(N)SCCc1c[nH]cn1
8.00
